Origin of the recorded values: PubChem BioAssay

Documented composite z-score across a set of compounds
molecular target: Torsin-1A-interacting protein 1 (Homo sapiens); test: LAP1 binders from COS7 cell lysate, primary screen, small-molecule microarray, 635/667 nm fluorescence (AID 1116); conditions: COS7-hLAP1 lysate binding, 635 nm fluorescence, higher = more signal

| compound | composite z-score |
| --- | --- |
| CC(C)(C)N1C(=O)[C@H]2[C@H]3[C@H](O)[C@H](O)CC(=NOCc4ccccc4)[C@H]3CC[C@H]2C1=O | 0.185 |
| CCOC(=O)[C@H](CC(C)C)NC(=O)CCC1CC(OC(=O)NCCc2ccc(F)cc2)CC2(CCCC(COC(=O)NCCc3ccccc3OC)O2)O1 (some centres not stated) | 0.793 |
| O=C1CCCC=C1C(O)CCOC(c1ccccc1)(c1ccccc1)c1ccccc1 (configuration not stated) | -0.462 |
| CCOC(=O)[C@H](Cc1ccccc1)NC(=O)CCC1CC(OC(=O)NCCc2ccc(F)cc2)CC2(CCCC(COC(=O)NCCCN3CCCC3=O)O2)O1 (some centres not stated) | 0.0166 |
| CON=C(C)CCC(=O)OC[C@H]1O[C@H](c2ccccc2)C=C[C@@H]1Oc1ccc(OC)cc1 | 0.474 |
| CO[C@@H]1C=CCC(=O)N[C@@H](C)C(=O)OC[C@@H](OC)[C@H](C)CCCC(=O)OC[C@H]1C | 0.95 |
| CC(CCC(=O)OC[C@H]1O[C@H](C#Cc2ccccc2)C=C[C@@H]1Oc1ccc(C)cc1)=NO[C@H](C)c1cn([C@H](CO)Cc2ccccc2)nn1 | -0.166 |
